Source: patent EP0111607A1

# tested-system: 5-HT M-receptor (Oryctolagus cuniculus)
# procedure-summary: pA2 against 5-HT in the isolated rabbit heart
# details: Table II, representative compounds of Formula I
Catalogue of pA2 5-HT readings, one per entry.

>  <compound>
Cc1ccc(C(=O)OC2CC3CCC(C2)N3C)cc1C (centres unmarked) [tropyl 3,4-dimethylbenzoate]

>  <pA2 5-HT>
8.2

$$$$
>  <compound>
Cc1cc(C)cc(C(=O)OC2CC3CCC(C2)N3C)c1 (centres unmarked) [pseudotropyl 3,5-dimethylbenzoate]

>  <pA2 5-HT>
8.9

$$$$
>  <compound>
Cc1ccc(C(=O)OC2CC3CCC(C2)N3C)c(C)c1 (centres unmarked) [tropyl 2,4-dimethylbenzoate]

>  <pA2 5-HT>
8.8

$$$$
>  <compound>
Cc1ccc(C)c(C(=O)OC2CC3CCC(C2)N3C)c1 (centres unmarked) [tropyl 2,5-dimethylbenzoate]

>  <pA2 5-HT>
8.6

$$$$

###

# tested-system: UniProtKB G1TUQ4
# Sequence (G1TUQ4 24-513): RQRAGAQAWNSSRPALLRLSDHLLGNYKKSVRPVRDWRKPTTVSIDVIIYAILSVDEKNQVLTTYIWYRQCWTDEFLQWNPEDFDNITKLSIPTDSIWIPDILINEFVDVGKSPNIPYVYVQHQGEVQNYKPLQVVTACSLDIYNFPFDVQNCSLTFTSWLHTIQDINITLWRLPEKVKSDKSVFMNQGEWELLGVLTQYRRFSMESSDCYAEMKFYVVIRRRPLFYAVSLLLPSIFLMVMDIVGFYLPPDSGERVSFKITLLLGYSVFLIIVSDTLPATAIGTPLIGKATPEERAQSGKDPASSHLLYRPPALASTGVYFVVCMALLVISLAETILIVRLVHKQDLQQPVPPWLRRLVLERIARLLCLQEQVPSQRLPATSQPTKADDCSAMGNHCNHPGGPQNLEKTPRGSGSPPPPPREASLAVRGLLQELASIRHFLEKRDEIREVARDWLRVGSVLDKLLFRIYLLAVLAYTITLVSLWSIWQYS
# procedure-summary: pA2 against 5-HT in the isolated rabbit heart
# details: Table III, related compounds for comparative purposes
Catalogue of pA2 5-HT readings, one per entry.

>  <compound>
CN1C2CCC1CC(OC(=O)c1ccc(Cl)c(Cl)c1)C2 (stereo not shown) [pseudotropyl-3,4-dichlorobenzoate]

>  <tested-system>
UniProtKB G1TUQ4

>  <pA2 5-HT>
7.5

$$$$
>  <compound>
Cc1cccc(C(=O)OC2CC3CCC(C2)N3C)c1 (stereo not shown) [tropyl 3-methylbenzoate]

>  <tested-system>
UniProtKB G1TUQ4

>  <pA2 5-HT>
8.1

$$$$
>  <compound>
CN1C2CCC1CC(OC(=O)c1ccc(Cl)cc1)C2 (stereo not shown) [pseudotropyl-4-chlorobenzoate]

>  <tested-system>
UniProtKB G1TUQ4

>  <pA2 5-HT>
6.7

$$$$
>  <compound>
CN1C2CCC1CC(OC(=O)c1ccccc1)C2 (stereo not shown) [pseudotropyl benzoate]

>  <tested-system>
UniProtKB G1TUQ4

>  <pA2 5-HT>
7.0

$$$$
